- Tested on: HepG2-A16-CD81EGFP cells
- Condition: HepG2, 3 µM compound treatment (10 mM stocks), replicate 2, normalized, average of 2 wells
Each item that follows carries a reported HepG2 3uM growth rep2.
Endpoint: HepG2 3uM growth rep2 (%)

Cc1cccc(-c2cc3nc(C)c(C)c(NCCCn4ccnc4)n3n2)c1	93
CC(NCc1ccccc1O)C12CC3CC(CC(C3)C1)C2 (stereo not drawn)	102
O=C(Nc1ccc(Nc2ccncc2)cc1)c1ccc(Nc2ccnc3ccc([N+](=O)[O-])cc23)cc1	92
COc1cccc2sc(N3CCN(C(=O)c4ccc([N+](=O)[O-])o4)CC3)nc12	93
Cc1ccc(-c2nn(-c3ccccc3)c3[nH]c(=O)c(CNCc4ccccc4)cc23)cc1	100
O=C(CCl)Nc1ccc(Oc2cnc3ccccc3n2)cc1	90
O=C(Nc1ccc(S(=O)(=O)N2CCOCC2)cc1)c1cc(-c2cc(Cl)ccc2O)n[nH]1	76
CCOC(=O)c1c(CN2CCN(c3ccccc3)CC2)oc2cc(Br)c(O)cc12	95
COc1cc(NC(=O)c2cc([N+](=O)[O-])ccc2NC(=O)CNC2CCCCC2C)cc(OC)c1 (stereo not drawn)	90
CCn1cnc2c(Nc3cc(F)cc(F)c3)nc(C#N)nc21	89
CCOC(=O)c1sc2nc3c(SCCC#N)cc(C(=O)c4cc(F)ccc4O)cn3c(=O)c2c1C	93
Oc1c(Cl)cc(Cl)cc1CN1CCN(Cc2ccccc2)CC1	94
O=C1N(c2ccccc2C(F)(F)F)OC1(Cc1ccccc1)c1ccccc1 (stereo not drawn)	88
CCN(CC)CCN1C(=O)c2ccccc2NC1c1ccc(Br)cc1 (stereo not drawn)	91
Cc1cc(Nc2ccc(Br)c(C)c2)n2nc(C)nc2n1	89

* * *

- Measurement Notes: in vitro
- Condition: human, hepg2 cells
One threshold, 30 µM, splits the recorded CC50 at 48 h values: lower ones are fulfilled, equal or higher ones are not fulfilled.

CCCN(CCC)CCNC(=O)c1cc2c(-c3ccc(Cl)cc3)nn(C)c2s1	not fulfilled
CC(Sc1nc2ccccc2c(=O)n1C)C(=O)N(C)C1CCCCC1 (stereo not drawn)	not fulfilled
Cc1cccc(Oc2nc(-c3ccccn3)nc3ccccc23)c1	fulfilled
CN1CCC(NCCC(c2ccc(F)cc2)c2ccc(Cl)cc2)CC1 (stereo not drawn)	not fulfilled
CCN1CC=C(c2c[nH]c3ccccc23)CC1	fulfilled
O=C(N1CCCN(c2cc(-c3ccc(Cl)cc3)n[nH]2)CC1)C1(c2ccccc2)CC1	not fulfilled
O=C(N/N=C/c1ccccn1)c1ccccc1	not fulfilled
NC(=NOC(=O)c1cccc(F)c1)c1ccccn1	fulfilled
COc1cc(Cl)c(NC2=CC(=O)C(=O)c3ccccc32)c(OC)c1	not fulfilled
Cc1nn2c(c1-c1ccccc1Oc1ccccc1)N(Cc1cccc(O)c1)CCC2	not fulfilled
COCC(=O)N[C@H]1C[C@@H](Cc2cc(-c3ccc(OC)cc3)on2)C1(C)C	not fulfilled
O=C(Nc1ccc(Cl)cc1)N1CCC(c2nc(-c3ccccc3Cl)no2)CC1	not fulfilled
CCCCCCc1cc2cc(-c3nnc(-c4ccc(C)cc4)o3)c(=O)oc2cc1O	not fulfilled
CCCN(CCC)CCCN=C(S)Nc1ccc2nc(N3CCCC3)cc(C)c2c1	not fulfilled
CCOc1cccc(CNCCc2c(C)[nH]c3ccc(OC(F)(F)F)cc23)c1O.O=C(O)C(=O)O	not fulfilled
CCN(CC)CCOC(=O)c1ccc(NC(=O)c2cc3c(=O)n(CC)c4ccccc4c3s2)cc1	not fulfilled

* * *

- Measurement Notes: in vitro
- Condition: human, HepG2-A16-CD81EGFP cells, uninfected
Endpoint: viability at 48 h, 3 µM (%)

Cc1ccccc1OCC(O)CN(Cc1ccccc1O)C1CCCCC1 (centres unmarked) [MLS001002964-01]	90
CCCN1C(CC(C)C)=N[S+](=O)([O-])c2cc(NC(=O)c3ccco3)ccc21 [NCGC00473219-01]	105
CCCN(CCC)c1nc(-c2ccccn2)nc2ccccc12 [MLS001165172-01]	90
CCOC(=O)c1ccc(N=C(S)N2CCN(CCNC3=CC(=O)CC(C)(C)C3)CC2)cc1 [MLS000710946-01]	101
O=C(Nc1ccc2c(N3CCOCC3)ncnc2c1)c1ccc(Br)o1 [NCGC00425547-01]	106
O=S(=O)(c1ccc(Cl)cc1)N1CCN(C(S)=NCC2CCCO2)CC1 (centres unmarked) [MLS001124005-01]	85
CCOc1ccc(Nc2nc(NCC3CCCO3)c3ccccc3n2)cc1 (centres unmarked) [MLS000724397-01]	83
COc1cc(O)c(C(CCN2CCCC(C)C2)c2cc(OC)c(OC)c(OC)c2)c(OC)c1 (centres unmarked) [MLS000879467-01]	88
CN(C)CCCn1cnc2c(c1=N)C(c1ccccc1)c1ccc3ccccc3c1O2 (centres unmarked) [MLS001216375-01]	110
Cc1ccc2sc(N3CCN(C(=O)c4ccc([N+](=O)[O-])o4)CC3)nc2c1C [MLS001234068-01]	105
CCOC(=O)C1=C(c2ccccc2)N=c2sc(=Cc3cc(OC)c(OC)c(OC)c3)c(=O)n2C1c1cccs1 (centres unmarked) [MLS000572607-01]	81
COc1cc(OC)c(NC2=CC(=O)C(=O)c3ccccc32)cc1Cl [MLS001198657-01]	59
COc1ccc(NC(=O)CN(C)C(=O)c2oc3c(ccc4ccccc43)c2C)cc1 [MLS002182882-01]	104
CC1CCCCN1Cc1c(O)ccc2c(=O)c(-c3nc4ccccc4s3)c(N)oc12 (centres unmarked) [MLS000591245-01]	95
Cc1ccc(-n2nc3c(Cl)nnc(C)c3c2C)cc1 [MLS000698458-01]	104
CCCN1C(CC(C)C)=N[S+](=O)([O-])c2cc(NC(=O)c3cccs3)ccc21 [NCGC00473217-01]	106
CN1CCN(c2ccc(Nc3ccnc4cc(Cl)ccc34)cc2)CC1 [MLS001203414-01]	90

* * *

This listing pairs compounds with measured HepG2 viability signal, 1 uM, repeat 2.
- Tested on: HepG2-A16-CD81EGFP cells
- Condition: nominal 1 uM (10 mM stock); […] for 15 mM, 1.2 uM for 12 mM, 2 uM for 20 mM stock; average of 2 wells; repeat 2
Endpoint: HepG2 viability signal, 1 uM, repeat 2

Cc1nn2c(c1-c1ccccc1-c1ccccc1)N(CC1CC1)CCC2	101.46%
CN(C)CCCNc1cc(N2CCN(C3CCCCC3)CC2)c2noc3c2c1C(=O)c1ccccc1-3	102.79%
COc1ccc(CN2CCCn3nc(C)c(-c4ccccc4Oc4ccccc4)c32)cc1O	99.76%
CCc1ccc(C2Sc3ccccc3N=C3C2=C(O)c2ccccc23)cc1 (centres unmarked)	104.01%
CC(C)c1ccc(CC(=O)N2CCCc3ncc(C(=O)Nc4cccnc4)cc32)cc1	94.19%
CC(C)c1ccccc1Oc1c(C(F)(F)F)oc2c(CN3CCN(C)CC3)c(O)ccc2c1=O	96.39%
Cc1cnc(CC2CCN([S+](=O)([O-])c3ccccc3)CC2)n1Cc1ccccc1	97.06%
Cc1cc(C)cc(C(=O)Nc2ccc3c(N4CCCC4)ncnc3c2)c1	92.65%

* * *

- Measurement Notes: in vitro
- Condition: human, hepg2-a16-cd81egfp cells, % viability
Endpoint: viability at 3 µM (%)

O=[N+]([O-])c1ccc(N2CCN(/C(S)=N/C3CCCCC3)CC2)cc1	99.2
CC(C)(C)OC(=O)N1CCC(CC2CC(c3ccccc3)=NO2)(C(=O)NCc2ccccc2)CC1 (centres unmarked)	99.3
CC1CC(C)CN(C(=O)c2ccc3ccccc3c2)C1 (centres unmarked)	90.9
Cc1cc(Nc2ccc(C)c(C)c2)n2nc(C)nc2n1	90.3
CCCN(C(=O)C(=O)Nc1ccc2nc3n(c(=O)c2c1)CCCCC3)c1ccc(OCC)cc1	93.7
Nc1nonc1-n1nnc(C(=O)N/N=C/c2ccc(F)cc2)c1-c1ccc2c(c1)OCO2	95.3
COc1cc(NC(=O)c2cc([N+](=O)[O-])ccc2NC(=O)CNC2CCCCC2C)cc(OC)c1 (centres unmarked)	90.2
COc1cccc(C2C3=C(N=c4sc(=Cc5ccccc5O)c(=O)n42)c2ccccc2CC3)c1OC (centres unmarked)	92.9

* * *

- System: Plasmodium falciparum Dd2-attB (parental line), asexual blood stages
- Construct: Dd2-attB, the isogenic parental line
- Measurement Notes: microbe, parasite or virus in culture
- Parameters: replicate k of 3 (each line is one of three independent assays; the three lines of one compound and parasite line follow each other)
- Condition: Plasmodium falciparum, DD2, 72 h; n = 1; read-out: Individual replicates / Log AC50 (converted)
AC50 by entry:
Endpoint: AC50 (µM)

CCOC(=O)CCNc1cc(N2CCc3ccccc3CC2)nc(-c2ccccn2)n1	6.33
O=[S+]([O-])(Nc1ccc(O)c2ncccc12)c1ccccc1F	14.2
CN(C)CCNC(=O)c1cccc(-c2cc(O)c3ncccc3c2)c1	14.2
Oc1ccc(CNc2cc(C(F)(F)F)ccn2)c2cccnc12	14.2
CCCN1CCCc2cc(CN(CCCN3CCOCC3)C(=O)Nc3ccc(Cl)c(Cl)c3)ccc21	3.99
Oc1ccc(COCc2ccc(F)cc2)c2cccnc12	17.8
CCN(CCN(C)C)C(=O)c1cc(OCc2ccc(Cl)cc2C)n(-c2cc(C#N)ccn2)n1	15.9
O=C(NCCC12CCCN1CCC2)c1cccc(-c2cc(O)c3ncccc3c2)c1	17.8
CC1(C)OB(c2ccc(O)c3ncc(N4CCNCC4)cc23)OC1(C)C	8.94
Cc1ccccc1C(OCCN1CCCCC1)c1cc2nccc(Cl)c2s1 (stereo not drawn)	8.94
COc1cccc(NCc2ccc(O)c3ncccc23)n1	12.6
Cc1nn2c(c1-c1ccnn1C(C)C)N(Cc1ccccc1)CCC2	8.94
COC(=O)c1ccc(O)c2ncc(NC3CCNCC3)cc12	8.94
CN1CCC(CCOC(c2cc3nccc(C(=O)O)c3[nH]2)c2ccccc2Cl)C1 (stereo not drawn)	12.6
Oc1ccc(CCc2ccccc2)c2cccnc12	7.1
O=C(N[C@H]1CCN(c2cc(-c3ccc(Cl)cc3)[nH]n2)C1)c1ccccc1	6.33
O=C(CCc1ccccc1)NC(c1cccs1)c1cc(Cl)c2cccnc2c1O (stereo not drawn)	3.99
Oc1ccc(CNc2ccc(F)cc2F)c2cccnc12	14.2
CCOc1ccc(-c2[nH]c3c(C#N)cnn3c2NC2CCCC2)cc1	14.2
CCOc1ccc(NC(=O)c2c(NCc3cccnc3)sc3c2CCCC3)cc1	5.64
Oc1c(CN2CCCCC2)cc(COCc2ccccc2)c2cccnc12	5.64
CN1CCN(CCCNC(=O)c2cccc(-c3cc(O)c4ncccc4c3)c2)CC1	15.9
N#CNC(=O)c1ccnc2cc(C(OCCN3CCCCC3)c3ccccc3Cl)sc12 (stereo not drawn)	14.2
O=C(Nc1ccc(O)c2ncccc12)c1ccccc1F	6.33
COC(=O)c1ccc(O)c2ncc(N3CC[C@@H](N)C3)cc12	7.1
O=C(NCCCCN1CCOCC1)c1cccc(-c2cc(O)c3ncccc3c2)c1	6.33
Cc1ccc(CN2CCN(c3cnc4c(O)ccc(C(=O)O)c4c3)CC2)cc1	17.8
CN(C)CCNC(=O)c1ccc(-c2cc(O)c3ncccc3c2)cc1	15.9
Oc1c(CN2CCCC2)cc(COCc2ccccc2)c2cccnc12	3.99
CC(C)c1c(-c2cnn(C(C)(C)C)c2)[nH]c2c(C#N)cnn2c1=O	15.9
Cc1nn2c(c1-c1ccccc1Oc1ccccc1)N(CCCc1ccccc1)CCC2	15.9
CN(C)[S+](=O)([O-])c1cccc(-c2cc(O)c3ncccc3c2)c1	5.64
Oc1ccc(Nc2ccccc2F)c2cccnc12	3.56
O=C(O)c1ccc(O)c2ncc(NC3CCNCC3)cc12	14.2
CN1CCN(Cc2cc(COCc3ccccc3)c3cccnc3c2O)CC1	5.03
CN(C)CCCN1CCN(C(=O)c2cccc(-c3cc(O)c4ncccc4c3)c2)CC1	11.3

Source of measurements: paper PMC7822874
